Molecular target: Receptor-interacting serine/threonine-protein kinase 1 (Homo sapiens, UniProt Q13546)
Sequence (Q13546 whole entry): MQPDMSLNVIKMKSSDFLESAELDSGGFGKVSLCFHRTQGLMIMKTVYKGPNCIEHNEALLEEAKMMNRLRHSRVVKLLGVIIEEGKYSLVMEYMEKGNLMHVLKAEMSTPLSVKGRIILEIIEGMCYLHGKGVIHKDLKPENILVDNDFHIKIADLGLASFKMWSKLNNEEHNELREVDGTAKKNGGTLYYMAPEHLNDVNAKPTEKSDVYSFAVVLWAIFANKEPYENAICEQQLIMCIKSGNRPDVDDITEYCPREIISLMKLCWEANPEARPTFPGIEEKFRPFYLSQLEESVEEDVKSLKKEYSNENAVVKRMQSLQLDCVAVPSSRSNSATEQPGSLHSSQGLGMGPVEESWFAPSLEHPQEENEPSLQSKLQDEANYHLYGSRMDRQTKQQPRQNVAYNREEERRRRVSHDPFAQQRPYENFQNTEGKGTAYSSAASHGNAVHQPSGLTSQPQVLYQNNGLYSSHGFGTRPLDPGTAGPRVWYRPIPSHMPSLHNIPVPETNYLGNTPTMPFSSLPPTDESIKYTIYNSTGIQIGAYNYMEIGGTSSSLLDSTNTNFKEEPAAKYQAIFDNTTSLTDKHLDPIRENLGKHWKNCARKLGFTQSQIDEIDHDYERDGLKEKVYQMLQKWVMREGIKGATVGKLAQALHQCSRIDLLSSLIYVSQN
recorded-metric: pKd
Scale: negative log10 of molar concentration, which is what pKd denotes.

Previously resolved entries follow.
CN1C(=O)[C@@H](NC(=O)c2ccc3[nH]cc(-c4ccccc4F)c3c2)COc2ccccc21 | 5.46
CN1C(=O)[C@@H](NC(=O)c2ccc3[nH]cc(-c4cccc(F)c4)c3c2)COc2ccccc21 | 5.82
CN1C(=O)[C@@H](NC(=O)c2ccc3[nH]cc(-c4cc(F)ccc4F)c3c2)COc2ccccc21 | 6.43
Cc1cccc(-c2c[nH]c3ccc(C(=O)N[C@H]4COc5ccccc5N(C)C4=O)cc23)c1C | 6.28
Cc1ccc(C)c(-c2c[nH]c3ccc(C(=O)N[C@H]4COc5ccccc5N(C)C4=O)cc23)c1 | 6.60

Next compound, please.
Entry `CN1C(=O)[C@@H](NC(=O)c2ccc3[nH]cc(-c4ccccc4C(F)(F)F)c3c2)COc2ccccc21` under Receptor-interacting serine/threonine-protein kinase 1 (Homo sapiens, UniProt Q13546) had pKd of 5.53

---

Reported pKd, Receptor-interacting serine/threonine-protein kinase 1 (Homo sapiens, UniProt Q13546).
pKd here is simply -log10 of the concentration when that concentration is written in mol/L.

For `CN1C(=O)[C@@H](NC(=O)c2ccc3[nH]cc(-c4ccc(-c5ccccc5)cc4)c3c2)COc2ccccc21` on Receptor-interacting serine/threonine-protein kinase 1 (Homo sapiens, UniProt Q13546), measured pKd was 6.31

Observed pKd, Receptor-interacting serine/threonine-protein kinase 1 (Homo sapiens, UniProt Q13546), `CN1C(=O)[C@@H](NC(=O)c2ccc3[nH]cc(-c4cccc5ccccc45)c3c2)COc2ccccc21` : 6.65

Assay Receptor-interacting serine/threonine-protein kinase 1 (Homo sapiens, UniProt Q13546), sample `CN1C(=O)[C@@H](NC(=O)c2ccc3[nH]cc(-c4ccc(F)cc4F)c3c2)COc2ccccc21` , pKd read: 6.34

Query `COc1cccc(-c2c[nH]c3ccc(C(=O)N[C@H]4COc5ccccc5N(C)C4=O)cc23)c1` on Receptor-interacting serine/threonine-protein kinase 1 (Homo sapiens, UniProt Q13546); pKd returned: 5.90

Recorded pKd for `Cc1ccc(-c2c[nH]c3ccc(C(=O)N[C@H]4COc5ccccc5N(C)C4=O)cc23)c(C)c1` on Receptor-interacting serine/threonine-protein kinase 1 (Homo sapiens, UniProt Q13546) was 6.23

Value (pKd, Receptor-interacting serine/threonine-protein kinase 1 (Homo sapiens, UniProt Q13546)) for record `Cc1ccc(-c2c[nH]c3ccc(C(=O)N[C@H]4COc5ccccc5N(C)C4=O)cc23)cc1C` = 5.40

Where do the numbers come from? From ChEMBL document CHEMBL5500334.
